Reported TGI values follow for various molecules
system: RPMI-8226 leukemia; assay: NCI tumour cell line growth inhibition, 48 h
readout: TGI

* [N-]=[N+]=NC1(N=[N+]=[N-])C(=O)NN=C(c2ccccc2)C1=O (stereo not given) | > 100 µM
* C#C[C@@]1(O)[C@@H](CO)O[C@@H](n2cc(Cl)c3c(N)ncnc32)[C@@H]1O | 0.607 µM
* Cc1cc(C)c(C(=O)O)c(N)c1O | > 100 µM
* CN(C(=O)OC(C)(C)C)[C@H]1CCCC[C@H]1N1CCCC1 | > 100 µM
* COC(=O)c1cc(NC2OCC(OC(C)=O)C(OC(C)=O)C2OC(C)=O)nc(SC)c1C(=O)OC (stereo not given) | > 100 µM
* O=C1CN(c2cccc(C(F)(F)F)c2)C(=O)CN1NCNN1CC(=O)N(c2cccc(C(F)(F)F)c2)CC1=O | > 100 µM
* COc1cc(CC2CCc3nc(N)nc(N)c3C2)cc(OC)c1OC (stereo not given) | > 68.4 µM
* O=S(=O)(NCCNc1cc(-c2cn(-c3ccccc3)nc2-c2cccc(O)c2)ccn1)c1ccc(C(F)(F)F)cc1 | 7.85 µM
* CCc1ccc(C2=C/C(=C/c3ccc(Cl)cc3)C(=O)N2CCc2ccc(S(N)(=O)=O)cc2)cc1 | 6.14 µM
* CON(C)C(=O)C(Cc1ccccc1)NC(=O)OC(C)(C)C (stereo not given) | > 100 µM
* O=[N+]([O-])C(/C(Cl)=C(/Cl)N1CCCCC1)=C1\NCCO1 | > 100 µM
* CS(=O)(=O)c1nc(N)nc2nc[nH]c12 | > 100 µM
* CCC1CCc2nc3sc(C(=O)Nc4ccccc4F)c(N)c3cc2C1 (stereo not given) | > 100 µM
* Nc1ncc(-c2cnn(C3CCNCC3)c2)cc1-c1nc2ccccc2o1 | 2.7 µM
* CCOC(=O)CSc1nc2ccccc2c(=O)n1N | > 100 µM
* OCCN1CCN(CCO)Cc2ccccc2OCCOc2ccccc2C1 | > 100 µM
* C#CCCCC(=C)C[C@H](OCc1ccccc1)[C@H]1OC(=O)[C@@H]1C | 83.7 µM
* COc1ccc(C2Oc3c(cccc3OC)C=C2[N+](=O)[O-])cc1OC (stereo not given) | > 100 µM
* CS(=O)(=O)c1ccc(N/N=C/c2c(-c3ccc(S(C)(=O)=O)cc3)[nH]c3ccc(F)cc23)cc1 | 2.9 µM
* CCCCCCCC1c2cc3[nH]c(cc4nc(cc5[nH]c(cc(n2)[C@@]1(C)CC(=O)N(C)C)c(C)c5CCC(=O)O)C(CCC(=O)O)=C4C)cc3C (stereo not given in full) | 47.7 µM

Data credit: PubChem BioAssay (NCI)
